assaySummary: A CellTox Green Cytotoxicity Assay to monitor cytotoxicity in HEK293 cells - 8 hour (AID 1224884); further: on the % scale 0 is the no-effect control and ±100 the full control effect; nearly all actives have a fitted effect of over 35% in size
conditionParameters: CellTox Green fluorescence; series mostly up to 76.8 µM
Inconclusive results are not listed. Calls of active or inactive are those of the source. The call rests on the fitted dose curve; in most records, active means well fitted activation curve with a large enough effect in the repeat runs; inconclusive means weak or mixed curves; inactive means flat fitted curve, though single readings scatter. Positions of bridges follow the written chain, without caps; N, C: chain ends. Non-standard residues stand in square brackets, D forms with d. Residues, ends and D or L forms follow the SMILES beside them. hArg = N=C(N)NCCCC[C@H](N)C(=O)O; Mpa = O=C(O)CCS
endpointName: cytotoxicity increase

The following compounds have reported results that may help.
1) CC(C)NCC(O)c1ccc2ccccc2c1 (stereo unspecified) ... inactive
2) CCCCOCCOC(=O)COc1ccc(Cl)cc1Cl ... inactive
3) CCOC(CN1CCN(CC(C)C(=O)c2ccccc2)CC1)c1ccccc1 (stereo unspecified) ... -4.22% [at 15.8 µM] (inactive)
4) COc1ccc(CCO)cc1 ... inactive
5) NC(=O)[C@@H]1CSSCCC(=O)N[C@@H](CCCCN=C(N)N)C(=O)NCC(=O)N[C@@H](CC(=O)O)C(=O)N[C@@H](Cc2c[nH]c3ccccc23)C(=O)N2CCC[C@H]2C(=O)N1 ([Mpa][hArg]GDWPC-NH2; disulfide 1-7) ... inactive

Continue with the compound presented below.
QUERY: Hello, please tell me recorded cytotoxicity increase for this one: [O-][n+]1cccc(/C(Cl)=N/OC[C@@H](O)CN2CCCCC2)c1
RESULT: inactive

----------
targetEntity: Cytochrome P450 2C19 (Homo sapiens) (UniProt P33261)
Sequence (P33261 whole entry, looked up): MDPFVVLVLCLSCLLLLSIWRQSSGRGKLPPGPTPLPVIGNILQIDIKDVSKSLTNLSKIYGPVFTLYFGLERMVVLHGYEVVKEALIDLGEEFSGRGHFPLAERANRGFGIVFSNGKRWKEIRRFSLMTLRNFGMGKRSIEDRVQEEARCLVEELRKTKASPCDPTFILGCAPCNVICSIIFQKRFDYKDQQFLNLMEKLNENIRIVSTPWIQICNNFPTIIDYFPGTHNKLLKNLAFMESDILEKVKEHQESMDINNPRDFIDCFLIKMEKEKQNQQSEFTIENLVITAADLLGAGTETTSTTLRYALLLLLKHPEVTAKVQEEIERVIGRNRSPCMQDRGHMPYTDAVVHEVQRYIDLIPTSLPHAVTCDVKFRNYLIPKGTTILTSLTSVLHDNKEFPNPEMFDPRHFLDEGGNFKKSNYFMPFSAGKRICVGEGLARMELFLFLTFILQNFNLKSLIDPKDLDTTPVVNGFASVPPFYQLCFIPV
assaySummary: Cytochrome P450 Family 2 Subfamily C Member 19 (CYP2C19) small molecule antagonists: luciferase reporter qHTS assay (AID 1671197); further: nearly all actives have a fitted effect of over 65% in size
conditionParameters: P450-Glo CYP2C19 enzyme, luciferin luminescence, 1 h; series mostly up to 115 µM
Results filed as inconclusive are left out. Activity calls are given as the source filed them. The call rests on the fitted dose curve; in most records, active means well fitted inhibition curve with a large enough effect in the repeat runs; inconclusive means weak or mixed curves; inactive means no such curve, though single readings can be large or run the other way.
Result category, one only: yes (1) (active), no (0) (inactive)

Would you please look over these solved cases?
1. OCC1CCC(CO)CC1 (stereo unspecified) ... no (0)
2. CCC(C)C(=O)OCCc1ccccc1 (stereo unspecified) ... no (0)
3. CCCCOC(=O)[C@H](C)O ... no (0)
4. CNCCS(=O)(=O)O ... no (0)
5. CC(O)CC(C)O (stereo unspecified) ... no (0)

QUERY: Which outcome did this test record for the compound OC[C@@H](O)C(O)[C@@H](O)CO (stereo partly specified) ?
RESULT: yes (1)

QUERY: Which outcome did this test record for the compound CO/N=C(/C(=O)N[C@@H]1C(=O)N2C(C(=O)[O-])=C(C[n+]3ccn4ncccc43)CS[C@H]12)c1nsc(N)n1 ?
RESULT: no (0)

QUERY: Which outcome did this test record for the compound CC(S)C(C)S (stereo unspecified) ?
RESULT: no (0)

----------
assaySummary: qHTS RealTime-Glo MT Cell Viability Assay in HepG2 cells - 0 hour (AID 1224889); further: on the % scale 0 is the no-effect control and ±100 the full control effect; nearly all actives have a fitted effect of over 50% in size
conditionParameters: RealTime-Glo luminescence; series mostly up to 76.8 µM
Results filed as inconclusive are left out. Active and inactive are the calls of the source. Calls come from the whole dose curve; as a rule, active = well fitted cell-killing curve with a large enough effect in the repeat runs; inconclusive = weak or mixed curves, or effect the other way; inactive = flat fitted curve, though single readings scatter.
endpointName: activity change, negative = cytotoxicity

The following compounds have reported results that may help.
1) O=C(Cl)c1ccccc1[N+](=O)[O-] ... inactive
2) CCCCCC/C=C/C(=O)OC ... inactive
3) CCOc1ccccc1OCC1CNCCO1 (centres undefined) ... inactive
4) OCC(O)CN1CCN(c2ccccc2)CC1 (centres undefined) ... inactive
5) CCCCOCCOC(=O)COc1ccc(Cl)cc1Cl ... inactive
6) CC1(C)O[C@H]2CC(=O)OC[C@]23[C@H]2CC[C@@]4(C)[C@H](c5ccoc5)OC(=O)[C@H]5O[C@]54[C@]2(C)C(=O)C[C@@H]13 ... inactive
7) CCCCOCC(C)O (centres undefined) ... inactive
8) O=C1CCCCO1 ... inactive

QUERY: Hello, please tell me recorded activity change, negative = cytotoxicity for this one: CC(C)OC(=O)CCC(=O)OC(C)C
RESULT: inactive

QUERY: Hello, please tell me recorded activity change, negative = cytotoxicity for this one: O=C=NCC1CCCC(CN=C=O)C1 (centres undefined)
RESULT: inactive

QUERY: Hello, please tell me recorded activity change, negative = cytotoxicity for this one: CCCC(=O)OC/C=C(\C)CCC=C(C)C
RESULT: inactive

QUERY: Hello, please tell me recorded activity change, negative = cytotoxicity for this one: Cc1ccc(C)c([N+](=O)[O-])c1
RESULT: inactive

QUERY: Hello, please tell me recorded activity change, negative = cytotoxicity for this one: c1ccc(-c2nn[nH]n2)cc1
RESULT: inactive

QUERY: Hello, please tell me recorded activity change, negative = cytotoxicity for this one: COc1ccc(CCO)cc1
RESULT: inactive

// data source = PubChem BioAssay (Tox21)
